# systemName: T1, full-length mouse TF with a C-terminal FLAG tag on Flp-In-CHO cells (mouse, UniProt P20352 29-294)
# T1 construct: also called CHO-mTF; mouse TF-positive CHO cells
# protocolSummary: flow cytometry on CHO cells expressing mouse TF, MFI at 250 nM antibody
experimentalReadout: MFI at 250 nM

>>> testvalue("25G (antibody, human IgG1, V domains shown, Human IgG1; also called antibody designated 25G) VH: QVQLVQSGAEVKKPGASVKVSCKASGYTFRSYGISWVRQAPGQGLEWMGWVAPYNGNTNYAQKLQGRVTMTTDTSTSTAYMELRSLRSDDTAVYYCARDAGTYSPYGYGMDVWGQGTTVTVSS VL: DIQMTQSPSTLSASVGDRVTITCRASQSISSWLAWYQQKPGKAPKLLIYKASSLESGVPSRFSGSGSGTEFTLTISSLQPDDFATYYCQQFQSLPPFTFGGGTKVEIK")
"1.6e+07"
>>> testvalue("25A3 (antibody, human IgG1, V domains shown, Human IgG1; also called antibody designated 25A3) VH: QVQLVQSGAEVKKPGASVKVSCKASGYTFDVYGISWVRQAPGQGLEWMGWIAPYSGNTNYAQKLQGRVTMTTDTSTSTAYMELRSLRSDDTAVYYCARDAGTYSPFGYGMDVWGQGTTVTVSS VL: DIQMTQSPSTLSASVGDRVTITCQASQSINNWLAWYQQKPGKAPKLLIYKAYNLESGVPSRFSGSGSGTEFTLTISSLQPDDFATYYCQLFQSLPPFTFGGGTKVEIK")
"5.8e+06"
>>> testvalue("25G9 (antibody, human IgG1, V domains shown, Human IgG1; also called antibody designated 25G9) VH: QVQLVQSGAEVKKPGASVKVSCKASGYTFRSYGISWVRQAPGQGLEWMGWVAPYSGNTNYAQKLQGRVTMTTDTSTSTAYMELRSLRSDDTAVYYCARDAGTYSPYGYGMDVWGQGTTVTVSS VL: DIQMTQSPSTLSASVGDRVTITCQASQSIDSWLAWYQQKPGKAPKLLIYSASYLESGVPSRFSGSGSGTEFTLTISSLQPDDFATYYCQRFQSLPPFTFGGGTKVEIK")
"1.8e+07"
>>> testvalue("25G1 (antibody, human IgG1, V domains shown, Human IgG1; also called antibody designated 25G1) VH: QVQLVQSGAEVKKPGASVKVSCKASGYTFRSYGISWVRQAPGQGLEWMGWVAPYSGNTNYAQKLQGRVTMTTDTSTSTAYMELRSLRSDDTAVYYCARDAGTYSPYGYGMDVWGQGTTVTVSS VL: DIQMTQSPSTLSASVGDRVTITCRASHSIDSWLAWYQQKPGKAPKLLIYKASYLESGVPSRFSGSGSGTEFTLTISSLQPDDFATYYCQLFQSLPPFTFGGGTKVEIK")
"1.9e+07"
>>> testvalue("25A (antibody, human IgG1, V domains shown, Human IgG1; also called antibody designated 25A) VH: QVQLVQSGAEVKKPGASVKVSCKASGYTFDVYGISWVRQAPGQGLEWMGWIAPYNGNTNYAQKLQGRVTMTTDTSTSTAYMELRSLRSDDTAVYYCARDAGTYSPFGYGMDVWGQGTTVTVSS VL: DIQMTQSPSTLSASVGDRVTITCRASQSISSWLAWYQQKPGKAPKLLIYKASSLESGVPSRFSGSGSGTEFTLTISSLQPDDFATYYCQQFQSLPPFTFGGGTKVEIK")
"3.8e+06"
>>> testvalue("25A5 (antibody, human IgG1, V domains shown, Human IgG1; also called antibody designated 25A5) VH: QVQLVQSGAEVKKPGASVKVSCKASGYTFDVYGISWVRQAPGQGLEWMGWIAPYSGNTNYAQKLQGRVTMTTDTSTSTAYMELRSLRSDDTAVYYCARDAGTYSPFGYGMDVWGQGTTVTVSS VL: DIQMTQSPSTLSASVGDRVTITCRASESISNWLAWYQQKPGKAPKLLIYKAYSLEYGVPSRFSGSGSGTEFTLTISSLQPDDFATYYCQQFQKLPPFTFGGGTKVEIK")
"8e+06"
